# Tested on: GIST882
# test summary: Cell proliferation assay (Cell Counting Kit-8), drug screen
# Format: cell-based
# conditions used: Homo sapiens, GIST882, 72 h, read-out: IC50 GIST882
reported metric: pIC50
Entry type: numeric. Quantity: pIC50, the -log10 of concentration in molar units.

In [3]: df
Out[3]:
                               given_smiles  reported_metric  readout_value
0  COc1c(C[C@@H](C)OC(=O)Oc2ccc(O)cc2)c2c3c(C[C@@H](C)OC(=O)c4ccccc4)c(OC)c(=O)c4c(O)cc(OC)c(c5c(OC)cc(O)c(c1=O)c52)c43            pIC50           7.00

Item under review: `O=C(NOC[C@H](O)CO)c1ccc(F)c(F)c1Nc1ccc(I)cc1F` . Reported pIC50? 6.30
